Data credit: patent US20070128217A1

# Tested on: antibodies in sera from SARS patients (sera 1a, 1b, 2, 6, 37, 62, London, SARS-yellow, SARS-green)
# Assay type: binding, human
Form field: Binding of serum 62 to linear peptides of protein X5 of SARS-CoV Urbani (one value per entry).
Lab note: jot down the number only; don't add units.

HRWHTMVQTCTPNVT	0.8
ALGKVLPFHRWHTMV	0.7

Requested field: Binding of serum 62 to linear peptides of protein X5 of SARS-CoV Urbani. Item: `RGNTYSTAWLCALGK`
0.8

Requested field: Binding of serum 62 to linear peptides of protein X5 of SARS-CoV Urbani. Item: `LCALGKVLPFHRWHT`
0.8

Requested field: Binding of serum 62 to linear peptides of protein X5 of SARS-CoV Urbani. Item: `STAWLCALGKVLPFH`
0.8

Requested field: Binding of serum 62 to linear peptides of protein X5 of SARS-CoV Urbani. Item: `GNTYSTAWLCALGKV`
0.8

Requested field: Binding of serum 62 to linear peptides of protein X5 of SARS-CoV Urbani. Item: `MCLKILVRYNTRGNT`
0.9

---

# Tested on: control sera (pooled serum of ten healthy LUMC hospital workers; commercial negative donor pooled serum from the Dutch bloodbank)
# Format: binding, human
# Set-up: unit not given here
Hi! Just check whether Binding of Control Serum Blood-Bank to Looped peptides is below 0.5. Below gives satisfied, equal or above gives not satisfied.

Example cases with answers are listed next.
GSITAQPVKIDNASP	not satisfied
NPLLYDANYFVCWHT	not satisfied
LIYFLQCINACRIIM	not satisfied

Then there is this sequence:
Dear reviewer, please state whether `LFLIVAALVFLILCF` has Binding of Control Serum Blood-Bank to Looped peptides strictly beneath 0.5.
not satisfied

---

# Tested on: antibodies in sera from SARS patients (sera 1a, 1b, 2, 6, 37, 62, London, SARS-yellow, SARS-green)
# Format: binding, human
# Set-up: unit not given here
Form field: Binding of serum 37 to linear peptides of protein M of SARS-CoV Urbani (one value per entry).

SFRLFARTRSMWSFN	0.8
TIVTRPLMESELVIG	0.7

Requested field: Binding of serum 37 to linear peptides of protein M of SARS-CoV Urbani. Item: `ELVIGAVIIRGHLRM`
0.8

Requested field: Binding of serum 37 to linear peptides of protein M of SARS-CoV Urbani. Item: `EQWNLVIGFLFLAWI`
0.4

---

Form field: Binding of Control serum LUMC to linear peptides of the protein X3 of SARS-CoV Urbani (one value per entry).
# Test system: control sera (pooled serum of ten healthy LUMC hospital workers; commercial negative donor pooled serum from the Dutch bloodbank)
# Type: binding, human
Lab note: jot down the number only; don't add units.

Past entries and their recorded results:
KKNYSELDDEEPMEL	0.4
DFQVTIAEILIIIMR	0.6
ILIIIMRTFRIAIWN	0.5
WNLDVIISSIVRQLF	0.3

Requested field: Binding of Control serum LUMC to linear peptides of the protein X3 of SARS-CoV Urbani. Item: `IIMRTFRIAIWNLDV`
0.7

Requested field: Binding of Control serum LUMC to linear peptides of the protein X3 of SARS-CoV Urbani. Item: `MFHLVDFQVTIAEIL`
0.9

---

# Test system: antibodies in sera from SARS patients (sera 1a, 1b, 2, 6, 37, 62, London, SARS-yellow, SARS-green)
# Format: binding, human
# Design: unit not given here
Hi! Just check whether Binding of serum SARS-green to looped/cyclic peptides of protein N of SARS-CoV Urbani is below 0.5. Below gives YES, equal or above gives NO.

Example cases with answers are listed next.
IGMEVTPSGTWLTYH	NO
RWYFYYLGTGPEASL	NO
ATEGALNTPKDHIGT	YES
PEASLPYGANKEGIV	YES
VTLLPAADMDDFSRQ	YES
ALLLLDRLNQLESKV	NO
VTPSGTWLTYHGAIK	YES
LESKVSGKGQQQQGQ	YES

Dear reviewer, please state whether `QRSAPRITFGGPTDS` has Binding of serum SARS-green to looped/cyclic peptides of protein N of SARS-CoV Urbani strictly beneath 0.5.
YES

Dear reviewer, please state whether `PSGTWLTYHGAIKLD` has Binding of serum SARS-green to looped/cyclic peptides of protein N of SARS-CoV Urbani strictly beneath 0.5.
YES

Dear reviewer, please state whether `NNQNGGRNGARPKQR` has Binding of serum SARS-green to looped/cyclic peptides of protein N of SARS-CoV Urbani strictly beneath 0.5.
YES
